PROTOCOL SUMMARY: in vitro
CONDITION SET: human, hela cells, % viability, bulk resorufin, single well
viability at 28.5 h, 10 µM values for the compounds below.

{"COMPOUND": "Cc1cc(Cl)c(OC(=O)NC2CCCCC2)cc1C [CBK022948]", "UNITS SYMBOL": "%", "viability at 28.5 h, 10 µM": 90.1}
{"COMPOUND": "Oc1cccc(CN2CCN(c3cccc(Cl)c3)CC2)c1 [CBK261543]", "UNITS SYMBOL": "%", "viability at 28.5 h, 10 µM": 90.1}
{"COMPOUND": "CCN(CC)CCCNC=C1C(=O)NC(=O)NC1=O [CBK262403]", "UNITS SYMBOL": "%", "viability at 28.5 h, 10 µM": 94}
{"COMPOUND": "Cc1cc(/C=C2\\C(=O)NC(=S)N(c3ccccc3)C2=O)c(C)n1-c1cc(C(=O)O)cc(C(=O)O)c1 [CBK263975]", "UNITS SYMBOL": "%", "viability at 28.5 h, 10 µM": 105}
{"COMPOUND": "COc1ccc2c(c1)COC1(CCN(C(=O)NC3CCCCC3)CC1)O2 [CBK060755]", "UNITS SYMBOL": "%", "viability at 28.5 h, 10 µM": 111}
{"COMPOUND": "Clc1cccc(N2CCNCC2)n1 [CBK001379]", "UNITS SYMBOL": "%", "viability at 28.5 h, 10 µM": 95.3}
{"COMPOUND": "COc1ccc(Cn2nc(C(=O)Nc3nnc(C(F)(F)F)s3)c3ccccc32)cc1 [CBK047884]", "UNITS SYMBOL": "%", "viability at 28.5 h, 10 µM": 99.3}
{"COMPOUND": "CSc1cc(C)c2c(c1)COC1(CCN(C(=O)c3ccccc3C(=O)O)CC1)O2 [CBK060843]", "UNITS SYMBOL": "%", "viability at 28.5 h, 10 µM": 94.1}
{"COMPOUND": "O=C1NC(=O)C(=Cc2cccc(OC(F)(F)C(F)F)c2)C(=O)N1 [CBK265150]", "UNITS SYMBOL": "%", "viability at 28.5 h, 10 µM": 108}
{"COMPOUND": "CS(=O)(=O)c1cccc(-c2ccc3c(c2)COC2(CCNCC2)O3)c1 [CBK060990]", "UNITS SYMBOL": "%", "viability at 28.5 h, 10 µM": 94.4}
{"COMPOUND": "NC(=O)C(=O)c1cn(Cc2ccccc2)c2ccccc12 [CBK288473]", "UNITS SYMBOL": "%", "viability at 28.5 h, 10 µM": 96.2}
{"COMPOUND": "CC(C)(C)OC(=O)N1CCC2(CC1)OCc1cc(-c3cccc(OCc4ccc(Cl)c(Cl)c4)c3)ccc1O2 [CBK105230]", "UNITS SYMBOL": "%", "viability at 28.5 h, 10 µM": 86.6}
{"COMPOUND": "CC(=O)N1CCC2(CC1)OCc1cc(-c3ccc(Cl)cc3)ccc1O2 [CBK060974]", "UNITS SYMBOL": "%", "viability at 28.5 h, 10 µM": 113}
{"COMPOUND": "CS(=O)(=O)c1ccc(-c2ccc3c(c2)COC2(CCN(C(=O)CC4CCCCC4)CC2)O3)cn1 [CBK160596]", "UNITS SYMBOL": "%", "viability at 28.5 h, 10 µM": 93.3}
{"COMPOUND": "CCOC(=O)N1CCC2(CC1)Oc1ccc(Br)cc1O2 [CBK089365]", "UNITS SYMBOL": "%", "viability at 28.5 h, 10 µM": 80.9}
{"COMPOUND": "CONC(=O)c1nn(Cc2ccc(C)cc2)c2ccccc12 [CBK047848]", "UNITS SYMBOL": "%", "viability at 28.5 h, 10 µM": 79.6}
{"COMPOUND": "CSc1cc(C)c2c(c1)COC1(CCN(C(=O)COCC(=O)O)CC1)O2 [CBK060839]", "UNITS SYMBOL": "%", "viability at 28.5 h, 10 µM": 94.1}
{"COMPOUND": "CN(C)c1ccc(C(=O)N2CCC3(CC2)OCc2cc(Cl)ccc2O3)cc1 [CBK061067]", "UNITS SYMBOL": "%", "viability at 28.5 h, 10 µM": 87.8}
{"COMPOUND": "Cc1ccccc1N1C(=O)NC(=O)C(CCc2ccncc2)(Cc2ccc3c(c2)OCO3)C1=O (stereo not drawn) [CBK266289]", "UNITS SYMBOL": "%", "viability at 28.5 h, 10 µM": 92}
{"COMPOUND": "c1cc2c(cc1-c1ccc3c(c1)OCO3)COC1(CCNCC1)O2 [CBK060925]", "UNITS SYMBOL": "%", "viability at 28.5 h, 10 µM": 95.9}
{"COMPOUND": "CCOC(=O)C1(c2ccccc2)CCN(C(=O)c2ccc3occc3c2)CC1 [CBK132187]", "UNITS SYMBOL": "%", "viability at 28.5 h, 10 µM": 92.2}
{"COMPOUND": "c1cc(-c2ccc3c(c2)COC2(CCNCC2)O3)c2cc[nH]c2c1 [CBK093812]", "UNITS SYMBOL": "%", "viability at 28.5 h, 10 µM": 108}
{"COMPOUND": "O=C(Cn1cc(/C=C2/C(=O)NC(=S)N(c3ccc(Cl)cc3)C2=O)c2ccccc21)Nc1ccccc1 [CBK263535]", "UNITS SYMBOL": "%", "viability at 28.5 h, 10 µM": 98.4}
{"COMPOUND": "O=C(NN=C1CCCCC1)C(O)(c1ccccc1)c1ccccc1 [CBK261783]", "UNITS SYMBOL": "%", "viability at 28.5 h, 10 µM": 91.1}
{"COMPOUND": "c1cc(-c2ccc3c(c2)COC2(CCNCC2)O3)c2cccnc2c1 [CBK060995]", "UNITS SYMBOL": "%", "viability at 28.5 h, 10 µM": 104}
{"COMPOUND": "COc1cccc2c1OC1(CCN(C(=O)c3cccn3C)CC1)OC2 [CBK061166]", "UNITS SYMBOL": "%", "viability at 28.5 h, 10 µM": 85.1}
{"COMPOUND": "CCC(=O)c1c(O)n(-c2ccccc2)c(=O)[nH]c1=O [CBK287862]", "UNITS SYMBOL": "%", "viability at 28.5 h, 10 µM": 96.8}
{"COMPOUND": "CCOC(=O)C1(c2ccccc2)CCN(C(=O)Cc2nnn[nH]2)CC1 [CBK132182]", "UNITS SYMBOL": "%", "viability at 28.5 h, 10 µM": 94.6}
{"COMPOUND": "CN1C(=O)C(=Cc2ccc(-c3cccc([N+](=O)[O-])c3)o2)C(=O)N(C)C1=S [CBK263903]", "UNITS SYMBOL": "%", "viability at 28.5 h, 10 µM": 95.1}
{"COMPOUND": "CCc1ccccc1N1C(=O)NC(=O)/C(=C\\c2ccc(OCC(=O)O)c(Cl)c2)C1=O [CBK264107]", "UNITS SYMBOL": "%", "viability at 28.5 h, 10 µM": 95.2}
{"COMPOUND": "CCc1ccc(C(=O)Nc2cccc(-c3ccc4c(c3)COC3(CCNCC3)O4)c2)cc1 [CBK093680]", "UNITS SYMBOL": "%", "viability at 28.5 h, 10 µM": 67.5}
{"COMPOUND": "CC(=O)C1(c2ccccc2)CCN(C(=O)CNS(=O)(=O)c2ccc(C)cc2)CC1 [CBK091328]", "UNITS SYMBOL": "%", "viability at 28.5 h, 10 µM": 92.5}
{"COMPOUND": "C=CCN1C(=O)/C(=C/c2cc(Cl)c(OCc3cccc(C(=O)O)c3)c(OC)c2)C(=O)NC1=S [CBK264877G]", "UNITS SYMBOL": "%", "viability at 28.5 h, 10 µM": 121}
{"COMPOUND": "CCOC(=O)C1(c2ccccc2)CCN(C(=O)Cc2c[nH]cn2)CC1 [CBK132205]", "UNITS SYMBOL": "%", "viability at 28.5 h, 10 µM": 94.3}
{"COMPOUND": "CC(C)(C)OC(=O)N1CCC2(CC1)OCc1cc(-c3ccc(S(C)(=O)=O)nc3)ccc1O2 [CBK159619]", "UNITS SYMBOL": "%", "viability at 28.5 h, 10 µM": 83.6}
{"COMPOUND": "Cc1ccc(Cn2nc(NC(=O)Oc3ccccc3)c3ccccc32)cc1 [CBK048407]", "UNITS SYMBOL": "%", "viability at 28.5 h, 10 µM": 84.2}
